assay: NCI Yeast Anticancer Drug Screen. Data for the sgs1 mgt1 strain (AID 161); details: S. cerevisiae sgs1 mgt1 strain, at 50.0 µM (retest, dose inferred, filed as 5.0)
Compounds without any hit were thinned out: in the full panel of roughly 79,000, 15% have a hit. The source made the active and inactive calls. Rule as the data show it: active = growth inhibition above about 70%; inactive = the rest.
Respond with a class label; see active, inactive

Some solved cases for reference:
| compound | category |
| --- | --- |
| COc1ccccc1CN1CCCN(Cc2ccccc2OC)C1c1cc(Cl)cc(Cl)c1O | active |
| Oc1c(Cl)c(Cl)c(O)c2c1CCCC2 | active |
| C/C=C/C=C\C1OC(O)([C@H](CC)C(=O)NC/C=C/C=C(\C)[C@H](OC)C(C)C2OC(\C=C/C=C/C=C(\C)C(=O)c3c(O)ccn(C)c3=O)[C@H](O)[C@@H]2O)C(O)C(O)C1(C)C (stereo partly drawn) | inactive |
| CCCCCCCCCCCCNC(=O)C[n+]1cccc(C(=O)Nc2ccccc2)c1 | active |

Please share the test call associated with COc1cccc2c1C(=O)c1c(O)c3c(c(O)c1C2=O)CC(O)(C(=O)CO)CC3OC1CC(N)C(I)C(C)O1 (stereo not drawn) .
active

Please share the test call associated with CCOC(=O)C(C(=O)O)(C(c1ccccc1)c1ccccc1)C(c1ccccc1)c1ccccc1 .
active

Please share the test call associated with N#Cc1c(-c2ccc(Cl)c(Cl)c2)c(-c2ccc(Cl)c(Cl)c2)nn(CCO)c1=O .
active

Please share the test call associated with CN(C)[C@H]1CC[C@H]2[C@@H]3CCC4C[C@@H](NC(=O)NC(Cc5ccccc5)c5nccs5)CC[C@]4(C)[C@H]3CC[C@]12C (stereo partly drawn) .
inactive
